- testTarget: SIRP-α mouse BALBc (mouse (BALBc)) (UniProt P97797)
- testName: SPR, antibody on GLC chip, SIRP as analyte
quantityMeasured: Kd (nM)
Your answer is read as nM, so omit the unit and give the number.

Worked set:
| binder | Kd, nM |
| --- | --- |
| Hum1/AB21_HC_Mutall (antibody, V domains shown) VH: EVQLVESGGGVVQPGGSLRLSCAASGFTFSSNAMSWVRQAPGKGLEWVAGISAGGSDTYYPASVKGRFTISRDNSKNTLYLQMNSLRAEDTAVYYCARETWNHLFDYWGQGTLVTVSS VL: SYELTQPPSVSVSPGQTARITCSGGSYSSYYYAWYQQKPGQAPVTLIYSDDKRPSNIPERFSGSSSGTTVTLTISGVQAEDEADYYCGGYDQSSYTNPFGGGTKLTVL | 7.9 |
| Anti-SIRP-α antibody 136, light chain Mut_Q38E, heavy chain Mut (antibody, V domains shown) VH: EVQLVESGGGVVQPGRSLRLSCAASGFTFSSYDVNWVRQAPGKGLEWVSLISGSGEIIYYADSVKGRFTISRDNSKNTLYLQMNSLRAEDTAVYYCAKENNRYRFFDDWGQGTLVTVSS VL: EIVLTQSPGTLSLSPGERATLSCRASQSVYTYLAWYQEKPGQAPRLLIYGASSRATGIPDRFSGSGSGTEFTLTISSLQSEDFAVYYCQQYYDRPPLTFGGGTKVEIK | 3 |

Turning now to a further record.
For Anti-SIRP-α antibody 136, light chain Mut, heavy chain Mut (antibody, V domains shown) VH: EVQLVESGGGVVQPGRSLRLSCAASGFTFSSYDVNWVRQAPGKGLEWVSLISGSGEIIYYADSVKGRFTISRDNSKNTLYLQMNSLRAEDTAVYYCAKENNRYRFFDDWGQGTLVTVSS VL: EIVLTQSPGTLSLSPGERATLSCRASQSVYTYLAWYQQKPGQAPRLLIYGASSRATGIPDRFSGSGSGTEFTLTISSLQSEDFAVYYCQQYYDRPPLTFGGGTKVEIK the binder record lists Kd as 3.1
